System: SW-620 colon
Assay protocol: NCI tumour cell line growth inhibition, 48 h
Give TGI for every item shown.

Indicate its recorded TGI; the molecule in question is O=C1c2ccccc2C(=O)c2oc(Br)cc21
1.09 µM

State its TGI for this molecule: CC(C)(C)S(=O)OC12CC3CC(CC(C3)C1)C2 (configuration not stated)
> 100 µM

Retrieve TGI measured for COc1ccc(C2=CC(c3ccc(OC)c(OC)c3)c3c(c4ccccc4oc3=O)O2)cc1OC (configuration not stated) and print it.
> 100 µM

Identify measured TGI corresponding to COc1cc2c(c(OC3OC(CO)C(O)C(O)C3O)c1)C(=O)CC(c1ccc(O)cc1)O2 (configuration not stated)
> 100 µM

Given COc1cc(C(=O)Oc2c(C#N)sc3c2c(=O)n(-c2ccccc2)c(=S)n3-c2ccccc2)cc(OC)c1OC , respond with its TGI.
68 µM

Please give the documented TGI of CCOC(=O)/C(C#N)=C/c1ccc2c(c1)CC1(C2)Cc2cc(CC)c(C(C)O)cc2C1 (configuration not stated)
22.5 µM

Give recorded TGI. CC1OC(OC2C(Oc3cc(O)c4c(c3)O[C@H](c3ccc(O)cc3)CC4=O)OC(CO)C(O)C2O)C(O)C(O)C1O (some centres not stated)
> 100 µM

For CSc1cccc(NC(=O)OC2CCCCCCCCCCC2)c1 , write its TGI.
45.9 µM

Return value of TGI for input CN(C)CCN1C(=O)c2cccc3cccc(c23)C1=O , no commentary.
> 25 µM

Look up and state reported TGI for COc1ccc(CCNC(=O)[C@H]2CCCC[C@@H]2CCO)cc1OC
> 100 µM

Annotate the molecule CC(=O)c1cc(C)n2c1CS[C@@H]2c1ccccc1 with its measured TGI.
> 100 µM

Consider the molecule O=C(CC1C(=O)c2ccccc2C1=C1C(=O)c2ccccc2C1=O)c1ccccc1 (configuration not stated) and give its recorded TGI.
> 100 µM

Answer with the recorded TGI of Cc1c(C)c(S(=O)(=O)N(CCCCCON)OCCCN)c(C)c2c1OC(C)(C)CC2 only.
33.2 µM

Please give the documented TGI of O=C1C=CC(CC(=O)c2ccc3ccccc3c2)O1 (configuration not stated)
49.5 µM

Provide TGI value for the following molecule: Cn1cnc([N+](=O)[O-])c1Sc1ncn[nH]1
> 100 µM

Give the reported TGI for this molecule. Cc1ccccc1-n1c(C)nc(-c2ccccc2)cc1=O
> 100 µM

Look up TGI of COc1ccc(C(=O)Nc2ccc3oc(-c4ccccc4)nc3c2)cc1 and report it.
> 100 µM

Dear colleague, please send me the reported TGI for CC(=O)NNc1nc(C)c(C(=O)NNC(=O)C(=O)Nc2c(C)cccc2C(C)(C)C)s1 when you can.
> 100 µM

Please supply the value of reported TGI for the item CN(C)C(=S)/N=c1\ss/c(=N\S(=O)(=O)c2ccccc2)n1N(C)C
> 100 µM

Tell me measured TGI for CC1=NN(C(=O)CC(=O)Nc2cccc(Cl)c2)C(=O)C1N=Nc1ccc(C(=O)O)cc1 (configuration not stated) please.
> 100 µM

Hello, please tell me recorded TGI for this one: CCc1nc(N)nc(N)c1-c1ccc(Cl)c(N=CN(C)C)c1
> 100 µM

For the molecule COc1ccc(OC)c(Nc2nc(-c3c(C)nc4sccn34)cs2)c1 , report TGI.
> 100 µM

Given c1ccc2cc3c(cc2c1)nc1ccccn13 , respond with its TGI.
> 100 µM

Report TGI for Cc1nc(Nc2nc3ccccc3o2)nc(-c2cccc([N+](=O)[O-])c2)c1C(=O)Nc1ccc(F)c(Cl)c1
> 100 µM

Look up TGI of COc1ccc(CCNCCCC2c3ccccc3-c3ccccc32)cc1OC and report it.
20.4 µM

For N#CC1=C(Cl)NC(Cl)=C(C#N)C1c1c(Cl)cccc1Cl , write its TGI.
27 µM

Return the recorded TGI value; entry: CC1=CC(=O)N(c2c(C)cccc2Cl)C(C)N1 (configuration not stated)
> 100 µM

Note down TGI recorded for CCn1c2ccccc2c2cc(C(O)c3cccc4ncccc34)ccc21 (configuration not stated)
> 100 µM

Please list TGI recorded for the molecule CCOP(=O)(OCC)/C(C#N)=C/c1ccnc2ccccc12
> 100 µM

Identify TGI associated with the molecule COc1ccc(Nc2cc(C)nc(N3CCN(c4ccnc5cc(Cl)ccc45)CC3)n2)cc1
13.2 µM

For CCOC(=O)C1=C(Nc2ccc(Cl)c(Cl)c2)OC/C1=N\NS(=O)(=O)c1ccc(C)cc1 , write its TGI.
> 100 µM

Provide TGI value for the following molecule: CCOP(=O)(OCC)/C(C#N)=C/c1c[nH]c2ccccc12
> 100 µM

Input Cc1cc(-c2nc3cccc(F)c3s2)ccc1N , output reported TGI.
> 100 µM

Give TGI for the following molecule: NCc1cc(O)c(O)c(O)c1
> 100 µM

Please report the measured TGI for CN(C)CC1CN=C(NC(=O)Nc2ccccc2)O1 (configuration not stated)
> 100 µM

State its TGI: O=S(=O)(C/C(=N\O)c1ccccc1)c1ccccc1
> 100 µM

Give TGI for the following molecule: CCOC(=O)c1c(C)c(C)n2c1NC(=O)C2
> 100 µM

Measured values drawn from PubChem BioAssay (NCI) for this set.
